Target: UniProt P56817
Sequence (P56817 46-501, species assumed): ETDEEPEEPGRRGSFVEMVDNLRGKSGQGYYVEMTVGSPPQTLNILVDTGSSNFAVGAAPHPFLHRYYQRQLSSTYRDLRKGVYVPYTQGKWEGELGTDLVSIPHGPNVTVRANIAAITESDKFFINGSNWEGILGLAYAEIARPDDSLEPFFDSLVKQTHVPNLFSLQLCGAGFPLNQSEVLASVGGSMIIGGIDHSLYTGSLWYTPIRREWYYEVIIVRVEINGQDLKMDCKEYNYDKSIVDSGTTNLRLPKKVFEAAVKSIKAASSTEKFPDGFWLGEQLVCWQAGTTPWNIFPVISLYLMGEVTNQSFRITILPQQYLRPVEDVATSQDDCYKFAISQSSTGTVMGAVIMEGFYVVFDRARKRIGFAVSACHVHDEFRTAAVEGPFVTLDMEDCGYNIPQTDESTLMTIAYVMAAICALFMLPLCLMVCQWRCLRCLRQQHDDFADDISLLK
Assay: In vitro BACE cell-based assay (Aβ40 in conditioned medium, sandwich ELISA)
measured attribute: IC50 (µM)

Consider the following illustrative entries.
NC1=N[C@@](c2cc(NC(=O)c3ccc(Cl)cn3)ccc2Cl)(C(F)F)[C@H]2C[C@H]2O1 [Example 99] :: 0.0195
N#Cc1cnc(C(=O)Nc2ccc(Cl)c([C@@]3(CF)N=C(N)O[C@@H]4C[C@@H]43)c2)c(F)c1 :: 0.00817
NC1=N[C@](CF)(c2cc(Nc3nccc4cc(Cl)cnc34)cc(F)c2F)[C@@H]2C[C@@H]2O1 :: 3.41
Cc1cc(C#N)cnc1C(=O)Nc1ccc(F)c([C@@]2(C(F)F)N=C(N)O[C@@H]3C[C@@H]32)c1 :: 0.017

A: COc1cnc(C(=O)Nc2ccc(F)c([C@]3(C(F)F)N=C(N)O[C@H]4C[C@H]43)c2)c(C)n1 (racemic) [Example 58]
B: NC1=N[C@](CF)(c2cc(NC(=O)c3ncc(Cl)cc3Cl)ccc2F)[C@H]2C[C@H]2O1
C: NC1=N[C@@](c2cc(NC(=O)c3ccc(Cl)s3)ccc2F)(C(F)F)[C@H]2C[C@H]2O1
D: CC(C)c1cc(Cl)cnc1C(=O)Nc1ccc(F)c([C@@]2(C(F)F)N=C(N)O[C@@H]3C[C@@H]32)c1
E: COc1cnc(C(=O)Nc2cc(C)c(F)c([C@@]3(C(F)F)N=C(N)O[C@@H]4C[C@@H]43)c2)c(C)c1
Q: Put these in order: smallest IC50 first, largest last. Return the labels ranked in the requested order, please.
Ans: B, E, D, A, C
